FYI, the data here is from patent US20250255848A1.

molecular target: ERα (Homo sapiens (Human), UniProt P03372); test: Estrogen receptor degradation activity: breast cancer cell ERα in cell western assay; format: cell-based; settings: MCF7 cells, 4 hours post compound addition; concentration which degrades 50% of the estrogen receptor
Sequence (P03372 whole entry): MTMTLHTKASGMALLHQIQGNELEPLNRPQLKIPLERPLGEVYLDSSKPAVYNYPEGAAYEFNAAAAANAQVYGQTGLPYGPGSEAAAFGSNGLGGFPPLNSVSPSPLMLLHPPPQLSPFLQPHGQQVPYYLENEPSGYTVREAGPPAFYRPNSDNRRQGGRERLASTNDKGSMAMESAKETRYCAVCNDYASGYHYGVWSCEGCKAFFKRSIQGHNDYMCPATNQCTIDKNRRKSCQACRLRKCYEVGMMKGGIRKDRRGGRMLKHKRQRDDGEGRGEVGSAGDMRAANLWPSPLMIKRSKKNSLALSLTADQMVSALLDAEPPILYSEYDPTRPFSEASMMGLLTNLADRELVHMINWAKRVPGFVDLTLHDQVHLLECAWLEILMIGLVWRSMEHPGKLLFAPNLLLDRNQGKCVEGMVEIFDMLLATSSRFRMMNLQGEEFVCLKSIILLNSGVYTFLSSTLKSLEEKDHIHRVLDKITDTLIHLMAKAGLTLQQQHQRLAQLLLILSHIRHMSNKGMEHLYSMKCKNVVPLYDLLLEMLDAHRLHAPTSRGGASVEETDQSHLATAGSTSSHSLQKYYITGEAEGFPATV
pIC50: −log10 of the molar value.
endpoint-label: pIC50

Please review the following examples before continuing.
structure	pIC50
COc1cccc(C2=C(c3ccc(C=C4CN(CCCF)C4)cc3)c3ccc(C(=O)O)cc3CCC2)c1C(F)F	9.22
Cc1cc(C2=C(c3ccc(C=C4CN(CCCF)C4)cc3)c3ccc(C(=O)O)cc3CCC2)ccc1C(F)F	9.30
Cc1cc(C(F)(F)F)c(C)cc1C1=C(c2ccc(C=C3CN(CCCF)C3)cc2)c2ccc(C(=O)O)cc2CCC1	9.40
CCc1cccc(CC)c1C1=C(c2ccc(C=C3CN(CCCF)C3)cc2)c2ccc(C(=O)O)cc2CCC1	9.10
Cc1ccc(C2=C(c3ccc(C=C4CN(CCCF)C4)cc3)c3ccc(C(=O)O)cc3CCC2)c(C)c1Cl	9.40

I: COc1ccc(C2=C(c3ccc(C=C4CN(CCCF)C4)cc3)c3ccc(C(=O)O)cc3CCC2)c(C(F)(F)F)c1
II: C[C@H]1CC[C@@H](C2=C(c3ccc(C=C4CN(CCCF)C4)cc3)c3ccc(C(=O)O)cc3CCC2)CC1
Query: Kindly compare I with II and tell me which has the lower pIC50 figure. To answer, give the label that identifies your chosen option.
Reply: II
